Compiled from multiple publications: pIC50 readings for Tyrosine-protein kinase JAK1 (Homo sapiens).
pIC50: −log10 of the molar value.
readoutKind: pIC50

- Cc1cnc(Nc2ccc(N3CCOCC3)cc2)nc1N1CC(C)(NC(=O)c2cccc(F)c2)C1: > 7.30
- Cc1ccc(-c2cnc3[nH]ccc3c2N[C@@H]2CCCN(C(=O)CC#N)C2)nc1: 7.00 to 8.00
- Cn1cc(-c2cc3nccn3c(-c3ccn([C@H](CCF)[C@H]4CC4(F)F)c3)n2)cn1: 7.00 to 8.00
- N#CCC1(n2cc(-c3ncnc4[nH]ccc34)cn2)CN(C2CCN(C(=O)C3CCCCC3)CC2)C1: 7.70 to 8.30
- CC(=O)N1CC2CC(Nc3nc(Nc4cnn(CC(C)(C)O)c4)ncc3Cl)CC2C1 (centres unmarked): 8.00
- CCN1CCC(CC#N)(n2cc(-c3nc(-c4cnn(C)c4)cc4nccn34)cn2)CC1: < 6.00
- Fc1cnc(Nc2ccc(OCCN3CCCC3)cc2)nc1NCc1ccco1: 6.75
- CN1CCC(c2ccc(Nc3ncc4c(n3)N(c3cccc(S(=O)(=O)NC(C)(C)C)c3)CC4)cc2)CC1: 7.00
- CCNC(=O)c1ccc(Nc2nccc(-c3ccc(NC(=O)[C@@H]4CC4(F)F)nc3)n2)cc1C: 8.10
- Cc1cc(Nc2ncc(C)c(N3CC(CC#N)(N4CC(C)CC(C)C4)C3)n2)sn1 (centres unmarked): > 8.30
- Cc1cc(Nc2nc(N[C@@H]3C[C@H]4CC[C@@H](C3)N4S(=O)(=O)N3CC(C#N)C3)nc3cc(C)sc23)n[nH]1: 10.22
- Cc1cnc2nc1NCCCCCNC(=O)c1ccc(cc1S(C)(=O)=O)-c1cnc(F)c(c1)N2: 7.00 to 7.96
- Cc1cnc(Nc2cccnc2)nc1N1CC(CC#N)(N2CCN(C)CC2)C1: > 7.30
- Cn1cc(Nc2ncc(Cl)c(NC3CC4CN(C(=O)NC5CC5)CC4C3)n2)cn1 (centres unmarked): 7.64
- C[C@@H](NC(=O)c1ccc(N2CC(CC#N)(n3cc(-c4ncnc5[nH]ccc45)cn3)C2)cc1F)C1CC1: > 8.00
- Nc1cc2ccc1-c1ccnc(n1)Nc1ccc(OCc3cccc4c3COC4)c(c1)COCCCCNC2=O: 5.00 to 6.00
- COCCN1CCN(C2(CC#N)CN(c3nc(Nc4cnn(CCOC)c4)ncc3C)C2)CC1: > 6.70

###

A compilation of IC50 values for Tyrosine-protein kinase JAK1 (Homo sapiens, UniProt P23458) from the published literature.
readoutKind: IC50

- COc1c(C(=O)N2CCC(N3CC(CC#N)(n4cc(-c5ncnc6[nH]ccc56)cn4)C3)CC2)csc1Cl: ≤ 5 nM
- O=C1NCCCCOCc2cc(ccc2OCC2CCCOC2)Nc2nccc(n2)-c2ccc1cc2[N+](=O)[O-] (centres unmarked): > 10000 nM
- CNC(=O)c1cnc(-c2cnc3[nH]ccc3c2N[C@@H]2CCCN(C(=O)CC#N)C2)s1: ≤ 10 nM
- N#CCC1(n2cc(-c3ccnc4[nH]ccc34)cn2)CN(c2cnc(C(=O)NCC(F)(F)F)cn2)C1: < 10 nM
- Cc1cnc(Nc2ccc[nH]c2=O)nc1N[C@H]1CC[C@H](CC#N)CC1: < 100 nM
- Cc1cc(Nc2nc(N[C@@H]3C[C@H]4CC[C@@H](C3)N4CCC#N)c3cc[nH]c3n2)n[nH]1: 2.94 nM
- CCc1cc(O)c(F)cc1-c1cc2[nH]ncc2c(NCc2ccccc2N(CCO)S(C)(=O)=O)n1: 1.1 nM
- CS(=O)(=O)CCNc1nc(Nc2ccc3c(c2)NC[C@H](O)CO3)ncc1C(N)=O: 10 to 100 nM
